MIC: recorded values
- System: Mycolicibacterium smegmatis
- methodSummary: Antimycobacterial activity against Mycobacterium smegmatis MC2 ATCC 19420 using compound level ranging from 1 to 100 ug/mL after 7 days by resazurin reduction test
- Type: functional
- conditionsUsed: MC2 ATCC 19420, 168 h

The following compounds have reported results that may help.
[
  {
    "smilesStr": "Cc1ccc(NC(=S)NNC(=O)c2cnc3c(C(F)(F)F)cccc3c2O)cc1",
    "MIC": "> 100 µg/mL"
  },
  {
    "smilesStr": "COc1ccc(NC(=S)NNC(=O)c2cnc3c(C(F)(F)F)cccc3c2O)cc1",
    "MIC": "> 100 µg/mL"
  }
]

# next compound below
Prompt: What measured MIC goes with `O=C(N/N=C/c1ccc2c(c1)CCO2)c1cnc2c(C(F)(F)F)cccc2c1O` ?
Completion: > 100 µg/mL
